We begin with a simple list: items and their reported emission maximum.
Test: solvent given as SMILES
Details: in C1CCOC1
Your answer is read as nm, so omit the unit and give the number.

Example entries and their recorded answers appear below.
1. O=S(=O)([O-])c1ccccc1/C=C/c1ccc(-c2nnc(-c3ccc(/C=C/c4ccccc4S(=O)(=O)[O-])cc3)o2)cc1 ... 415
2. Cc1cc(C)c(B(c2c(C)cc(C)cc2C)c2cc3ccc4ccccc4c3c3c2ccc2ccccc23)c(C)c1 ... 446
3. CC(C)(C)c1ccc(-c2nc(-c3ccc(C(C)(C)C)cc3)nc(-c3ccc(-n4c5ccccc5c5c6oc7ccccc7c6ccc54)c(C#N)c3)n2)cc1 ... 450.74
4. CCOC(=O)c1sc(SC)c2c(=O)[nH]nnc12 ... 465
5. C1=Cc2ccccc2C(=Cc2ccc(-c3ccc(C=C4c5ccccc5-c5ccccc54)cc3)cc2)c2ccccc21 ... 450

Query: Entry CCCCC1(c2ccccc2)Nc2c(-c3ccc(OC)cc3)ccc(-c3ccc(OC)cc3)c2N=C1c1ccccc1 (centres undefined) has what emission maximum?
Response: 547

Query: Entry COc1ccc(C2CC(c3ccc(O)cc3)=NN2c2ccc(S(N)(=O)=O)cc2)cc1 (centres undefined) has what emission maximum?
Response: 417

Query: Entry O=C(c1ccc(/C(=C(/c2ccccc2)c2ccc(C(=O)c3ccc(-n4c5ccccc5c5ccccc54)cc3)cc2)c2ccccc2)cc1)c1ccc(-n2c3ccccc3c3ccccc32)cc1 has what emission maximum?
Response: 502

Query: Entry c1ccc(-n2c(-c3cccc4ccccc34)nc3c4ccccc4c4ccccc4c32)cc1 has what emission maximum?
Response: 413.91

Query: Entry CCC1=C(C)C2=C(C)c3c(C)c(CC)c(C)n3[B-](F)(F)[N+]2=C1C has what emission maximum?
Response: 534

Query: Entry CC(C)(C)c1cc2ccc3c(-c4ccc(N(c5ccccc5)c5ccccc5)cc4)ccc4c5nc6cc(C#N)c(C#N)cc6nc5c(c1)c2c34 has what emission maximum?
Response: 839.18

###

Test: solvent given as SMILES
Details: in C1CCOC1
We begin with a simple list: items and their reported emission maximum.
Your answer is read as nm, so omit the unit and give the number.

Example entries and their recorded answers appear below.
1. CN1CCN(c2ccc3c4c(cccc24)C(=O)c2ccccc2-3)CC1 ... 593
2. CN(C)c1ccc(C=C/C=C/C=C/c2ccc(C#N)cc2)cc1 ... 609
3. CCN(CC)c1ccc2cc(-c3cc(SC)c(C#N)c(=O)o3)c(=O)oc2c1 ... 558
4. COc1ccc(/C=C/c2nc(/C=C/c3ccc(N(C)C)cc3)cc(/C=C/c3ccc(N(C)C)cc3)n2)cc1 ... 522
5. CC1(C)CCc2c(c3ccccc3c3nc4ccccc4nc23)O1 ... 483.09

Query: Entry F[B-]1(F)n2c(c(-c3ccccc3)c(-c3ccccc3)c2-c2ccccc2)C(c2ccccc2)=C2C(c3ccccc3)=C(c3ccccc3)C(c3ccccc3)=[N+]21 has what emission maximum?
Response: 613

Query: Entry CCCCCCCCCCOC(=O)c1ccc2c3ccc(C(=O)OCCCCCCCCCC)c4c(C(=O)OCCCCCCCCCC)cc5[nH]c6cc(C(=O)OCCCCCCCCCC)c1c2c6c5c43 has what emission maximum?
Response: 493

Query: Entry Cc1sc(-c2ccc(-c3nc(-c4ccccc4)c(-c4ccccc4)[nH]3)cc2)c(C)c1C1=C(c2c(C)n(C)c3ccccc23)C(F)(F)C(F)(F)C1(F)F has what emission maximum?
Response: 392

Query: Entry CN(C)c1ccc(C2=Nc3scc(-c4ccc(N(C)C)cc4)[n+]3[B-](F)(F)O2)cc1 has what emission maximum?
Response: 616

Query: Entry Cc1cc(=O)c2ccc(N)cc2o1 has what emission maximum?
Response: 382

Query: Entry CC1(C)c2ccccc2N(c2ccc3c(c2)c2cc(N4c5ccccc5C(C)(C)c5ccccc54)cc4c5ccccc5n3c42)c2ccccc21 has what emission maximum?
Response: 481.94

###

Experiment: solvent given as SMILES
Conditions: in CCO
We begin with a simple list: items and their reported emission maximum.
Your answer is read as nm, so omit the unit and give the number.

1. Cc1cc(=O)oc2c1cc(Br)c1occ(C)c12 ... 416
2. O=Cc1ccc(-c2cccc(-c3nc4ccccc4s3)c2O)o1 ... 567
3. CC(C)(C)OC(=O)NCC(=O)OCc1ccc2c3cccc4cccc(c5cccc1c52)c43 ... 446
4. CCCC(=O)c1c2c(c(C(=O)CCC)c3c1OC(CC(=O)OC)(C(=O)O)O3)OCO2 ... 603
5. CN(C)c1ccc(C=C/C=C/C=C/c2ccc(C#N)cc2)cc1 ... 637

Query: Entry COc1cccc(-n2c(-c3ccc(O)cc3)nc(C)c2C)c1 has what emission maximum?
Response: 372

Query: Entry CN(C)c1ccc(/C=C/c2nc3ccc(N(C)C)cc3oc2=O)cc1 has what emission maximum?
Response: 666

Query: Entry COCCOCCOCCOc1ccc(OCCOCCOCCOC)c(C=O)c1 has what emission maximum?
Response: 462

Query: Entry CC/[NH+]=c1\cc2oc3cc(NCCC(=O)NC(C(=O)OC)c4ccccc4)c4ccccc4c3nc-2cc1C (stereo not drawn) has what emission maximum?
Response: 644

Query: Entry N#Cc1cc2ccccc2[nH]1 has what emission maximum?
Response: 334

Query: Entry C=CCNc1ccc2ccc3oc4cc(=[N+](C)C)ccc-4nc3c2c1 has what emission maximum?
Response: 631

Query: Entry N#CC(C#N)=Cc1cn(-c2ccccc2)nc1-c1ccccc1 has what emission maximum?
Response: 426

Query: Entry COc1ccc(/C=C/C2=NC(=C\c3ccncc3)/C(=O)N2C)cc1 has what emission maximum?
Response: 570

Query: Entry Cc1ccc(-c2ccc(/C=C/c3cccn3C)cn2)nc1 has what emission maximum?
Response: 501

Query: Entry CC(C)(C)OC(=O)NC(Cc1ccccc1)C(=O)OCc1ccc2c3cccc4cccc(c5cccc1c52)c43 (stereo not drawn) has what emission maximum?
Response: 447

Query: Entry COc1ccc2c(c1)-c1ccccc1C2=O has what emission maximum?
Response: 549

Query: Entry COC(=O)C(Cc1ccc2oc(-c3ccc(Nc4ccccc4)cc3)nc2c1)NC(=O)OC(C)(C)C (stereo not drawn) has what emission maximum?
Response: 453.49

Query: Entry CCN(CC)c1ccc2nc3c4ccccc4c(=O)cc-3oc2c1 has what emission maximum?
Response: 638

Query: Entry CCCCCC(=O)c1c2c(c(C(=O)CCCCC)c3c1OC1(CCCC1)O3)OC1(CCCC1)O2 has what emission maximum?
Response: 596

Query: Entry CCOC(=O)c1cc(C(=O)OCC)c2cc(N(C)C)ccc2n1 has what emission maximum?
Response: 564

Query: Entry CCOC(=O)c1sc(SC)c2c(=O)[nH]nnc12 has what emission maximum?
Response: 492

Query: Entry CN(C)c1ccc(/C=C/C(=O)c2ccc(Cl)cc2)cc1 has what emission maximum?
Response: 542

Query: Entry CCCCOc1ccc2cc(-c3ccc(C)cc3)c(=O)oc2c1 has what emission maximum?
Response: 429

Query: Entry Oc1ccccc1/C=N/N=C/c1ccccc1O has what emission maximum?
Response: 579.71

Query: Entry CC(=O)OC[C@@H]1O[C@H](N2C=CC3=Nc4nc(C)[n+](C)cc4CN3C2=O)[C@@H](O)[C@H]1O has what emission maximum?
Response: 418

Query: Entry CN1CCN(c2ccc3c4c(cccc24)C(=O)c2ccccc2-3)CC1 has what emission maximum?
Response: 640

Query: Entry CN(C)c1ccc(/C=C/c2cc[n+](C)cc2)cc1 has what emission maximum?
Response: 594

###

Experiment: solvent given as SMILES
Details: in CCCCCC
We begin with a simple list: items and their reported emission maximum.

Example entries and their recorded answers appear below.
1) N#Cc1ccc(N/N=C/c2ccc3ccccc3c2O)cc1 ... 415 nm
2) CC(C)[Si](C#Cc1ccc(C#C[Si](C(C)C)(C(C)C)C(C)C)c2nc3cc4c(cc3nc12)[C@H]1c2ccccc2[C@@H]4c2ccccc21)(C(C)C)C(C)C ... 455 nm
3) C/C=C/c1cccc(OC)c1 ... 325 nm

Next:
Query: Entry Brc1ccc(-c2nc(-c3ccc(C#Cc4ccc(-n5c6ccccc6c6ccccc65)cc4)cc3)nc(-c3ccc(C#Cc4ccc(-n5c6ccccc6c6ccccc65)cc4)cc3)n2)cc1 has what emission maximum?
Response: 411 nm

###

Assay: solvent given as SMILES
Conditions: in ClCCl
Hi! Could you tag entries with emission maximum below 500 nm as criterion met, and those at or above as criterion not met? Much appreciated.

For orientation, consider the following solved cases.
1. CCN(CC)c1ccc([N+]2=Cc3ccc4c5c(ccc4c3O[B-]2(c2ccccc2)c2ccccc2)C=[N+](c2ccc(N(CC)CC)cc2)[B-](c2ccccc2)(c2ccccc2)O5)cc1 ... criterion not met
2. CCCCN1C(=O)c2ccc3c4ccc5c6c(cc(Br)c(c7ccc(c2c37)C1=O)c64)C(=O)N(CCCC)C5=O ... criterion not met

Query: Determine whether this compound shows emission maximum lower than 500 nm (ties excluded): CN(C)c1ccc(C2=Nc3sc4cc(C(F)(F)F)ccc4[n+]3[B-](F)(F)O2)cc1
Response: criterion met
